System: field corn (Zea mays L., var. Dekalb 535, CORN)
measurementDescription: Pre-emerge test, crop safety
Format: in vivo
measurementSetup: pre-emerge, 250 g ai/ha, 14 days after application, rating scale 0-100
Measured phytotoxicity rating CORN accompanies every entry in the list below.
Kindly provide the number alone.

# count of solved cases: 3
Q) Annotate the molecule COc1c(Cl)cc(F)c(-n2c(=O)cc(C(F)(F)F)n(C)c2=O)c1Sc1ccc2ccccc2c1 with its measured phytotoxicity rating CORN.
A) 0

Q) # return recorded phytotoxicity rating CORN for entry CCCOC(=O)C(Cl)Cc1c(OCC)c(Cl)cc(F)c1-n1c(=O)cc(C(F)(F)F)n(C)c1=O (stereo not shown) [14-66]
A) 0

Q) Identify the reported phytotoxicity rating CORN for the following entry. CCOC(=O)NNc1c(OC)c(Cl)cc(F)c1-n1c(=O)cc(C(F)(F)F)n(C)c1=O
A) 100

Turning now to a further record.
Q) Give me measured phytotoxicity rating CORN, please, for this molecule: COc1c(Cl)cc(F)c(-n2c(=O)cc(C(F)(F)F)n(C)c2=O)c1NNC(=O)c1ccc(F)cc1F
A) 100

====

Tested on: lambsquarters (Chenopodium album, CHEAL)
measurementDescription: Post-emerge test, greenhouse herbicide activity screening
Assay type: in vivo
measurementSetup: Rate 63 g ai/ha; rating scale 0-100 (0 no damage, 100 complete death); 14 days after application
// NB: equality with 90 counts as -1; only Post-emerge Herbicidal Activity, phytotoxicity rating CHEAL strictly below is 1

Q) Given the entry CCOC(=O)C(Cl)(C#N)Cc1c(OC)c(Cl)cc(F)c1-n1c(=O)cc(C(F)(F)F)n(C)c1=O (centres unmarked) , would its reported Post-emerge Herbicidal Activity, phytotoxicity rating CHEAL be below 90?
A) 1

Q) Is 90 strictly greater than the molecule's reported Post-emerge Herbicidal Activity, phytotoxicity rating CHEAL? molecule: COc1c(Cl)cc(F)c(-n2c(=O)cc(C(F)(F)F)n(C)c2=O)c1CC(C)(Cl)C(=O)OCC(C)C (centres unmarked)
A) -1

Q) Does the reported Post-emerge Herbicidal Activity, phytotoxicity rating CHEAL of the following molecule sit strictly below 90? CCOC(=O)C(Cl)Cc1c(OC)c(Cl)cc(F)c1-n1c(=O)cc(C(F)(F)F)n(C)c1=O (single isomer, unassigned)
A) -1

====

Tested on: large crabgrass (Digitaria sanguinalis, DIGSA)
measurementDescription: Pre-emerge test, greenhouse herbicide activity screening
Assay type: in vivo
measurementSetup: 63 g ai/ha; rated 14 days after application; 0 = no damage, 100 = complete death
Rule for this label: t means Pre-emerge Herbicidal Activity, phytotoxicity rating (0-100), DIGSA is less than 90; f means Pre-emerge Herbicidal Activity, phytotoxicity rating (0-100), DIGSA is at least 90.

Completed entries (count: 5):
Q) # TODO verify Pre-emerge Herbicidal Activity, phytotoxicity rating (0-100), DIGSA < 90 strictly for this compound: COc1c(Cl)cc(F)c(-n2c(=O)cc(C(F)(F)F)n(C)c2=O)c1NC(=O)C=Cc1ccccc1Cl [2-82]
A) t

Q) Say whether its Pre-emerge Herbicidal Activity, phytotoxicity rating (0-100), DIGSA is strictly beneath 90. Entry: COc1c(Cl)cc(F)c(-n2c(=O)cc(C(F)(F)F)n(C)c2=O)c1NC(=O)c1c(F)cccc1F [2-47]
A) f

Q) Criterion: Pre-emerge Herbicidal Activity, phytotoxicity rating (0-100), DIGSA strictly below 90. Is it met by COc1c(Cl)cc(F)c(-n2c(=O)cc(C(F)(F)F)n(C)c2=O)c1NC(=O)c1ccccc1F [2-39] ?
A) f

Q) Regarding COc1c(Cl)cc(F)c(-n2c(=O)cc(C(F)(F)F)n(C)c2=O)c1NC(=O)c1ccc(-c2ccccc2)cc1 [2-37] , kindly confirm whether its Pre-emerge Herbicidal Activity, phytotoxicity rating (0-100), DIGSA is beneath 90.
A) t

Q) # strict comparison: is reported Pre-emerge Herbicidal Activity, phytotoxicity rating (0-100), DIGSA < 90? input = CCOc1ccc(C(=O)Nc2c(OC)c(Cl)cc(F)c2-n2c(=O)cc(C(F)(F)F)n(C)c2=O)cc1 [2-64]
A) t

Continue with the next compound.
Q) Confirm or reject: Pre-emerge Herbicidal Activity, phytotoxicity rating (0-100), DIGSA of COc1c(Cl)cc(F)c(-n2c(=O)cc(C(F)(F)F)n(C)c2=O)c1NC(=O)C=Cc1ccco1 [2-92] lies strictly below 90
A) t
